# measured.target: T1, human TIGIT-His protein (human, UniProt Q495A1 22-141)
# T1 construct: Recombinant protein; also called human TIGIT-his tag; hTIGIT-His
# T1 sequence (looked up): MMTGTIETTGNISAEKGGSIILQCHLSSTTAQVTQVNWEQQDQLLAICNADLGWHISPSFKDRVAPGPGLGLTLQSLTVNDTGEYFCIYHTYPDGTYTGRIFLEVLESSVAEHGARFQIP
# protocol.details: SPR (Biacore) affinity ranking, human TIGIT-His
Let's look at some binders and their measured kon.

[
  {
    "binder": "76D12B10-Hu13 (antibody, V domains shown, Humanized, VH.V3 + VK.V2) VH: EVQLQESGPGLVKPSETLSLTCAVSGYSISSGYDWHWIRQPPGKGLEWMGFIRDSGSTVYNPSLKGRITISHDTSKNQFSLKLSSVTAADTAVYYCARGLFWYFDVWGQGTTVTVSS VL: DIQMTQSPSSLSASVGDRVTITCRTSENIFSYLAWYQQKPGKVPKLLVHNTKTLAEGVPSRFSGSGSGTDFTLTISSLQPEDVATYYCQHHYGNPLTFGQGTKLEIK",
    "kon, M⁻¹ s⁻¹": "4.54e+06"
  },
  {
    "binder": "76D12B10-Hu09 (antibody, V domains shown, Humanized, VH.V4 + VK.V1) VH: EVQLQESGPGLVKPSETLSLTCAASGYSITSGYDWHWIRQPPGKGLEWMGFIRDSGSTVYNPSLKGRITISHDTSKNQFSLKLSSVTAADTAVYYCARGLFWYFDVWGQGTTVTVSS VL: DIQMTQSPSSLSASVGDRVTITCRTSENIFSYLAWYQQKPGKVPKLLIHNTKTLAEGVPSRFSGSGSGTDFTLTISSLQPEDVATYYCQHHYGNPLTFGQGTKLEIK",
    "kon, M⁻¹ s⁻¹": "9.01e+06"
  },
  {
    "binder": "76D12B10-Hu10 (antibody, V domains shown, Humanized, VH.V5 + VK.V1) VH: EVQLQESGPGLVKPSETLSLTCAASGYSITSGYDWHWIRQPPGKKLEWMGFIRDSGSTVYNPSLKGRITISHDTSKNQFSLKLSSVTAADTAVYFCARGLFWYFDVWGQGTTVTVSS VL: DIQMTQSPSSLSASVGDRVTITCRTSENIFSYLAWYQQKPGKVPKLLIHNTKTLAEGVPSRFSGSGSGTDFTLTISSLQPEDVATYYCQHHYGNPLTFGQGTKLEIK",
    "kon, M⁻¹ s⁻¹": "3.68e+06"
  }
]
